# Tested on: HBV
# Protocol Summary: Anti-HBV activity in HepG2.2.15 cells (HBV DNA in culture medium by qPCR)
# Assay type: cell-based
# Test Settings: Hepatitis B virus, HepG2.2.15, 144 h, HepG2.2.15 cells, 6 days treatment, HBV DNA in culture medium quantified by real-time PCR; read-out: EC50
Listed molecules paired with reported EC50
Please give a number only; it is taken to be in nM.

Below, 2 molecules whose answers are already recorded.
Molecule	EC50, nM
CCOC(=O)C1=C(CN2CC(F)(F)[C@@H]3[C@H]2CON3CCC(C)(C)C(=O)O)NC(c2nccs2)=N[C@@H]1c1ccc(F)c(F)c1C (single isomer, unassigned) [Compound 164]	3
COC(=O)C1=C(CN2CC(F)(F)[C@@H]3C(=O)N(CC(C)(C)C(=O)O)C[C@@H]32)NC(c2nccs2)=N[C@H]1c1ccc(F)c(F)c1Cl (single isomer, unassigned) [Compound 42]	13.8

INPUT: For the molecule shown here, CCOC(=O)C1=C(CN2CC(F)(F)[C@@H]3CN([C@H]4CC[C@@H](C(=O)O)CC4)C(=O)[C@@H]32)NC(c2nccs2)=N[C@H]1c1cccc(F)c1C (single isomer, unassigned) [Compound 185A] , give the reported EC50.
OUTPUT: 5.4

Value source: patent US20230083012A1
